The measured values listed here are drawn from patent US20230339882A1.

Consider the following molecules; for each one, report its microsomal CLint at 2 µM.
Assay: In vitro metabolic stability in liver microsomes, rat
Assay type: in vitro ADME
Conditions: pH 7.3, read-out: CLint (µL/min/mg protein) rat
Answers are plain numbers, in µL/min/mg.

Past entries and their recorded results:
Notebook: NC(=O)c1ccc(OCC#Cc2cnc(N3CCC4(CC3)Cc3ccccc3[C@H]4N)cn2)cc1Cl , microsomal CLint at 2 µM read as 8.1

NC(=O)c1ccc(OCC#Cc2cnc(N3CCC4(CC3)Cc3ccccc3[C@H]4N)c(CO)n2)cc1Cl yielded microsomal CLint at 2 µM of 12.8

Reported microsomal CLint at 2 µM for NC(=O)c1cccc(OCC#Cc2cnc(N3CCC4(CC3)Cc3ccccc3[C@H]4N)c(CO)n2)c1 was 7.5

Value of microsomal CLint at 2 µM reported for the molecule Nc1ncc(OCC#Cc2cnc(N3CCC4(CC3)Cc3ccccc3[C@H]4N)c(CO)n2)cn1 is 31.6

Value of microsomal CLint at 2 µM reported for the molecule NC(=O)Cc1cccc(OCC#Cc2cnc(N3CCC4(CC3)Cc3ccccc3[C@H]4N)c(CO)n2)c1 is 16.2

Batch of 2 molecules: report microsomal CLint at 2 µM for each.
1. N[C@@H]1c2ccccc2CC12CCN(c1ncc(C#CCOc3ccc(C(F)(F)F)cc3)nc1CO)CC2
2. N#Cc1ccc(OCC#Cc2cnc(N3CCC4(CC3)Cc3ccccc3[C@H]4N)c(CO)n2)cc1

1. 1.8
2. 5.5

----------
Test: In vitro metabolic stability in liver microsomes, mouse
Format: in vitro ADME
Settings: pH 7.3, read-out: CLint (µL/min/mg protein) mouse
Criterion: microsomal CLint at 2 µM strictly under 10 µL/min/mg. Met: y. Not met: n.

Field: example entries. Status: answers known.
A record lists Nc1ncc(OCC#Cc2cnc(N3CCC4(CC3)Cc3ccccc3[C@H]4N)c(CO)n2)cn1 [Compound A19] . Is its microsomal CLint at 2 µM below 10 µL/min/mg?
n

Please determine if NC(=O)c1ccc(OCC#Cc2cnc(N3CCC4(CC3)Cc3ccccc3[C@H]4N)cn2)cc1Cl [Compound A62] is below 10 µL/min/mg in terms of microsomal CLint at 2 µM.
y

Bench note: check whether NC(=O)Cn1cc(OCC#Cc2cnc(N3CCC4(CC3)Cc3ccccc3[C@H]4N)c(CO)n2)cn1 [Compound A82] shows microsomal CLint at 2 µM below 10 µL/min/mg
n

microsomal CLint at 2 µM under 10 µL/min/mg? Item: NC(=O)c1ccc(OCC#Cc2cnc(N3CCC4(CC3)Cc3ccccc3[C@H]4N)c(CO)n2)cc1Cl [Compound A54]
n

is_below(microsomal CLint at 2 µM, 10 µL/min/mg) for NC(=O)c1cccc(NCC#Cc2cnc(N3CCC4(CC3)Cc3ccccc3[C@H]4N)c(CO)n2)c1 [Compound A81] ?
n

Continuing:
Is it true that microsomal CLint at 2 µM reported for NC(=O)c1cccc(OCC#Cc2cnc(N3CCC4(CC3)Cc3ccccc3[C@H]4N)c(CO)n2)c1 [Compound A27] is less than 10 µL/min/mg?
n

Is 10 µL/min/mg strictly greater than the molecule's reported microsomal CLint at 2 µM? molecule: N[C@@H]1c2ccccc2CC12CCN(c1ncc(C#CCOc3ccc(C(F)(F)F)cc3)nc1CO)CC2 [Compound A14]
y

Record NC(=O)Cc1cccc(OCC#Cc2cnc(N3CCC4(CC3)Cc3ccccc3[C@H]4N)c(CO)n2)c1 [Compound A59] : is its microsomal CLint at 2 µM strictly below 10 µL/min/mg?
n

Record CN(CC#Cc1cnc(N2CCC3(CC2)Cc2ccccc2[C@H]3N)c(CO)n1)c1ccc(C(N)=O)cc1 [Compound A55] : is its microsomal CLint at 2 µM strictly below 10 µL/min/mg?
n

Consider N#Cc1ccc(OCC#Cc2cnc(N3CCC4(CC3)Cc3ccccc3[C@H]4N)c(CO)n2)cc1 [Compound A12] . Does its microsomal CLint at 2 µM lie strictly below 10 µL/min/mg?
y

# strict comparison: is reported microsomal CLint at 2 µM < 10 µL/min/mg? input = Cn1nccc1NCC#Cc1cnc(N2CCC3(CC2)Cc2ccccc2[C@H]3N)c(CO)n1 [Compound A61]
n

Consider N[C@@H]1c2ccccc2CC12CCN(c1ncc(C#CCOc3ccc4ccc(=O)[nH]c4c3)nc1CO)CC2 [Compound A24] . Does its microsomal CLint at 2 µM lie strictly below 10 µL/min/mg?
y

Answer whether the molecule N[C@@H]1c2ccccc2CC12CCN(c1ncc(C#CCOc3ccc(C(O)C(F)(F)F)cc3)nc1CO)CC2 (some centres unmarked) [Compound A80] has microsomal CLint at 2 µM strictly less than 10 µL/min/mg
y
